Test system: M2-10B4 marrow stromal cells
assay summary: Alkaline phosphatase (ALP) activity assay
condition notes: M210B4, 72 h, read-out: Fold Induction in alkaline phosphatase activity over control untreated cells
# fold induction at 2.5 µM values compiled below

compound | fold induction at 2.5 µM
C[C@]12CC[C@H](O)C[C@@H]1[C@@H](O)C[C@@H]1[C@@H]2CC[C@@]2(C)[C@H]1CC[C@@H]2[C@@](C)(O)CCCc1cccs1 [Oxy50] | 65
C[C@]12CC[C@H](O)C[C@@H]1[C@@H](O)C[C@@H]1[C@@H]2CC[C@@]2(C)[C@H]1CC[C@@H]2[C@@](C)(O)CCCc1ccccc1 [Oxy53] | 11
C=C(C)CCC[C@](C)(O)[C@H]1CC[C@H]2[C@@H]3C[C@H](O)[C@H]4C[C@@H](O)CC[C@]4(C)[C@H]3CC[C@@]21C [Oxy49] | 68
C[C@]12CC[C@H](O)C[C@@H]1[C@@H](O)C[C@@H]1[C@@H]2CC[C@@]2(C)[C@H]1CC[C@@H]2[C@@](C)(O)CCc1ccccc1 [Oxy52] | 22
C[C@]12CC[C@H](O)C[C@@H]1[C@@H](O)C[C@@H]1[C@@H]2CC[C@@]2(C)[C@H]1CC[C@@H]2[C@@](C)(O)CC#Cc1cccs1 [Oxy51] | 20

All values here come from patent US9526737B2.
